testedSystem: T1, recombinant C-terminal ApoE fragment G200-HIS (ApoE-G200-H299-10xHIS) (human, UniProt P02649 218-317)
T1 construct: also called G200-HIS fragment
T1 sequence (P02649 other isoform, or with tags, fused parts or gaps limits assumed): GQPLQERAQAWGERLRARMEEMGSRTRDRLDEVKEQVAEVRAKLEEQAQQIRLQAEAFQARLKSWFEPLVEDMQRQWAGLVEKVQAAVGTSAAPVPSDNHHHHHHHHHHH
assayDetails: second direct ELISA, G200-HIS coated at 0.1 µM
Method: The screening was performed according to standard ELISA protocols. Briefly, 1 μg/ml solutions of BSA-conjugated neo-epitope peptides, recombinant C-terminal ApoE fragment, negative control peptide and full-length ApoE were prepared by dilution in PBS. 50 μl/well were added to an ELISA half-area 96 well microtiter plate, the plate was sealed with adhesive sealer and incubated over night at 4° C. […] The optical density at 450 nm was read using an ELISA reader (Tecan). […]
# Lookup of reported EC50 keyed by entry
Entry rule: numbers only, all in µg/mL.

Fill in: EC50 of 23D5, recombinant IgG2c antibody (antibody, V domains shown) VH: EVQLVESGGGLVKPGGSLKLSCSASGFTFSRYAMSWVRQSPEKRLEWVAEINSGGSYSFYSDTVTGRFTISRDNAKNTLFLEMSSLRSEDTAIYYCARQLSGTDYYGTDYWGQGTSVTVSS VL: DVLMTQTPLSLPVSHGDQASISCRSSQSLLYSNGNTYLEWYLQKPGQSPKLLIYKVSNRFSGVPDRFSGSGSGTDFTLKISRVEAEDLGVYYCFQGSHVPYTFGGGTKLEIK is ___ 0.0101

Please look up its EC50: 7B10, recombinant IgG2c antibody (antibody, V domains shown, also called 7610) VH: AVQLVESGGGLVKPGRSLKLSCAASGFTFSSYAMSWVRQFPDKRLDWVAEISSGGGSTNYLDTVTGRFTISRDNAKNTLYLEMNSLRSEDTAMYYCARQLVGTDYYGTDYWGQGTSVTVSS VL: DVLMTQTPLSLPVSLGDQASISCRSSQNIVYSNGNTYLEWYLQKPGQSPKLLIYKVSNRFSGVPDRFSGSGSGTDFTLKISRVEAEDLGVYYCFQGSHVPYTFGGGTKLEIK 0.0107

Which EC50 reading was recorded for the binder 17G4, recombinant IgG2c antibody (antibody, V domains shown) VH: EVQLVESGGGLVKPGGSLKLSCSASGFTFSRYAMSWVRQSPEKRLEWVAEINSGGSYSFYSDTVTGRFTISRDNAKNTLFLEMSSLRSEDTAIYYCARQLTGTDYYGTDYWGQGTSVTVSS VL: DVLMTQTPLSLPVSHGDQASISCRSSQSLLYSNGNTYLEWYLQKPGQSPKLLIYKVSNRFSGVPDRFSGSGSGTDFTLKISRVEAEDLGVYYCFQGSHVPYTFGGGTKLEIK ? 0.0079

Any idea what its EC50 is? The binder is 4E6, recombinant IgG2c antibody (antibody, V domains shown, also called recombinant anti-G200 antibody 4E6) VH: EVQLVESGGDLVKPGGSLKLSCAASGFTFSSYAMSWVRQSPEKRLEWVAEISGSGSRDHYTDSVTGRFTVSRDNAKNTLYLEMSSLRSEDTAIYYCARQLTGTDYYGTDYWGQGTSVTVSS VL: DVLMTQIPLSLPVSLGDQASISCRSSQSIVYSNGNTYLEWYLQRPGQSPKLLIYKVSNRFSGVPDRFSGSGSGTDFTLKISRVEAEDLGVYYCFQGSHLPYTFGGGTKLEIK 0.0095

Fill in: EC50 of 7C7, recombinant IgG2c antibody (antibody, V domains shown) VH: EVQLVESGGGLVKPGGSLRLSCAASGFTFSSFAMSWVRQSPERRLEWVAEISRGGGYAFYSDTVTGRFTISRDNARNTLFLEMGSLRSEDTAMYYCSRQLTGTDYYAMDYWGQGTSVTVSS VL: DVLLTQTPLSLFVSLGDQASISCRSSQSIVYTNGNTYLEWYLQKPGQSPKLLIYKVSNRFSGVPDRFSGSGSGTDFTLKISRVEAEDLGVYYCFQGSQVPYTFGGGTKLELK is ___ 0.0181

Given the binder 28F2, recombinant IgG2c antibody (antibody, V domains shown) VH: QIQLVQSGPDLKKPGETVKISCKASGYTFTNYAMHWMKQAPGKALKWMGWINTYTGEPTFADDFKGRFAFSLETSASTAYLQINSLKNEDMATYFCAREGYYDRSHYFDYWGQGTTLTVSS VL: DVLMTQTPLSLPVSLGDQASISCRSSLSLVHGDGNTYLEWYLQKPGQSPKLLIYKVSNRFSGVPDRFSGSGSGTDFTLKISRVEAEDLGVYYCLQGSHIPFTFGSGTKLEIK , what is its reported EC50? 0.0215
